- subject-of-test: T1, human GIP receptor (human, UniProt P48546 22-466)
- T1 sequence (looked up): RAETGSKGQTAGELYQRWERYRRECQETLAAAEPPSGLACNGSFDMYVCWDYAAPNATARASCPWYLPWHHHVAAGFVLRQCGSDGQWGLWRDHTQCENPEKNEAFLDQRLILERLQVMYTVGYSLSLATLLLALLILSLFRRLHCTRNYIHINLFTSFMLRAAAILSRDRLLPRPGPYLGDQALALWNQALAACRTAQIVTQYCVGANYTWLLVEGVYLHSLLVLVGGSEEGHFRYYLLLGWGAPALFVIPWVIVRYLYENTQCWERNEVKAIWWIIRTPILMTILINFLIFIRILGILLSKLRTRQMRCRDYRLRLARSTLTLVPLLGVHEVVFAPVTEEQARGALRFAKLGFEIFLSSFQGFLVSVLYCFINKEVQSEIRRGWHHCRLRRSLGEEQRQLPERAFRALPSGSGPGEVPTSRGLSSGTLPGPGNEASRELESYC
- procedure-details: cell-based or functional assay
*1 amine or outer side, *2 acyl side, *3 side chain or, on linkers, in order; H or OH if unused. Where no end group is shown, it is not given here. Side-chain parts run from the residue outwards. [ ]: non-standard residue; d: D form. The star is where a group is joined. C20 diacid = O=C(O)CCCCCCCCCCCCCCCCCCC(=O)*; C18 diacid = O=C(O)CCCCCCCCCCCCCCCCC(=O)*; γGlu = O=C(O)[C@H](CCC(=O)[*:2])N[*:1]; Trx = NC[C@H]1CC[C@H](C(=O)O)CC1; Nle = CCCC[C@H](N)C(=O)O; AEEA = NCCOCCOCC(=O)O; Aib = CC(C)(N)C(=O)O
Mark each entry yes if its EC50, hGIP-R CRE Luc, 0.2% HSA sits below 20 pM, and no for all others.

Previously resolved entries follow.
binder	label-value
Y[Aib]EGTFISDYSIA[Nle]DKIRQ[Aib]DFVK([γGlu-γGlu-γGlu-C18 diacid])WLLAQKG	yes
Y[Aib]EGTFISDYSIA[Nle]DKIRQQDFVK([γGlu-γGlu-γGlu-Trx-C20 diacid])WLLAQKGKEEDWKHNITQ	no
Ac-[dY]AEGTFISDYSIA[Nle]DKIRQEDFVK([AEEA-AEEA-γGlu-C18 diacid])WLLAQKG	no
Ac-[dY]AEGTFISDYSIA[Nle]DKIHQ[Aib]DFVK([γGlu-γGlu-γGlu-Trx-C20 diacid])WLLAQKG	no

## Task Lab note: EC50, hGIP-R CRE Luc, 0.2% HSA threshold 20 pM. Does this binder come in strictly under it? Y[Aib]EGTFISDYSIA[Nle]DKIHQEDFVK([γGlu-γGlu-γGlu-γGlu-C18 diacid])WLLAQKG
## Result no

FYI, the data here is from patent US20220000982A1.
